Tested on: MCF7
ASSAY NAME: Cytotoxicity against human MCF7 cells after 72 hrs by MTT assay
Assay type: functional, cell-based
APPLIED CONDITIONS: MCF7, 72 h
Define the label as fulfilled when IC50 is strictly less than 9 µM and as not fulfilled in all remaining cases.

Use the examples below as a reference point.
> print(dat)
                                 mol.smiles          group
1  O=C1C(F)=C(Nc2ccccc2)C(=O)c2c(F)c(F)c(F)c(F)c21      fulfilled
2  CC1=C(Nc2ccccc2)C(=O)c2c(F)c(F)c(F)c(F)c2C1=O  not fulfilled
3  CCN(CC)C1=C(F)C(=O)c2c(F)c(F)c(F)c(F)c2C1=O      fulfilled
4   CCNC1=C(F)C(=O)c2c(F)c(F)c(F)c(F)c2C1=O      fulfilled
5  CC1=C(SCCO)C(=O)c2c(F)c(F)c(F)c(F)c2C1=O  not fulfilled

For the next question, use this compound.
Ask | Confirm or reject: IC50 of `CC(C)(C)NC1=C(F)C(=O)c2c(F)c(F)c(F)c(F)c2C1=O` lies strictly below 9 µM
Reply | fulfilled

====

ASSAY NAME: Cytotoxicity against mouse LMTK cells after 72 hrs by MTT assay
Format: cell-based
APPLIED CONDITIONS: L-M(TK-)
pIC50: −log10 of the molar value.
So basically: pIC50 at 5 or higher? That is y. Lower than 5? That is n.

Use the examples below as a reference point.
> print(dat)
                                 mol.smiles  group
1  CC(C)(C)NC1=C(F)C(=O)c2c(F)c(F)c(F)c(F)c2C1=O      y
2  CCN(CC)C1=C(F)C(=O)c2c(F)c(F)c(F)c(F)c2C1=O      n

Ask | I'd appreciate it if you could say whether `CC1=C(Nc2ccccc2)C(=O)c2c(F)c(F)c(F)c(F)c2C1=O` has pIC50 at least equal to 5.
Reply | n

====

Tested on: RPMI-8226
ASSAY NAME: Cytotoxicity against human RPMI8226 cells after 72 hrs by MTT assay
Type: functional, cell-based
APPLIED CONDITIONS: RPMI-8226, 72 h
pIC50: −log10 of the molar value.
So basically: pIC50 at 5 or higher? That is yes. Lower than 5? That is no.

> print(dat)
                                 mol.smiles  group
1  CCN(CC)C1=C(F)C(=O)c2c(F)c(F)c(F)c(F)c2C1=O    yes
2  CC(C)(C)NC1=C(F)C(=O)c2c(F)c(F)c(F)c(F)c2C1=O    yes
3  CC1=C(Nc2ccccc2)C(=O)c2c(F)c(F)c(F)c(F)c2C1=O     no
4  O=C1C(F)=C(Nc2ccccc2)C(=O)c2c(F)c(F)c(F)c(F)c21    yes
5  CC1=C(SCCO)C(=O)c2c(F)c(F)c(F)c(F)c2C1=O     no

Ask | I'd appreciate it if you could say whether `CCNC1=C(F)C(=O)c2c(F)c(F)c(F)c(F)c2C1=O` has pIC50 at least equal to 5.
Reply | yes

====

Please respond with reported pIC50 for every item in the list.
Test system: Salmonella typhimurium
ASSAY NAME: Suppression in H2O2-iduced mutagenesity in Salmonella Typhimurium TA102 assessed as 150 to 100 % suppression of revertant formation by Ames assay
APPLIED CONDITIONS: Salmonella enterica
Numbers only, as −log10 of the molar value.

Recorded results for 3 compounds are shown here.
> print(dat)
                                 mol.smiles  numeric.readout
1  CC1=C(Nc2ccccc2)C(=O)c2c(F)c(F)c(F)c(F)c2C1=O             6.12
2   CCNC1=C(F)C(=O)c2c(F)c(F)c(F)c(F)c2C1=O             7.03
3  CC(C)(C)NC1=C(F)C(=O)c2c(F)c(F)c(F)c(F)c2C1=O             5.85

Lab note: each compound below needs its pIC50 filled in.
1. CCN(CC)C1=C(F)C(=O)c2c(F)c(F)c(F)c(F)c2C1=O
2. O=C1C(F)=C(Nc2ccccc2)C(=O)c2c(F)c(F)c(F)c(F)c21

Reply |
6.07
7.05

Every entry's value here was drawn from ChEMBL document CHEMBL1165870.
